Each entry below carries its recorded IC50.
System: IL-1β
experiment: In-vitro IL-1β inhibition assay in PMA-differentiated, LPS-primed, ATP-stimulated THP1 cells
Assay type: cell-based
condition_summary: Homo sapiens, THP-1, read-out: IC50 (nM), invitro IL-1β inhibitory activity

molecule: CN1CCC[C@@]1(C)/C=C/S(=O)(=O)NC(=O)Nc1cc2c(c3c1CCC3)CCC2
IC50, nM: 32
--
molecule: CC[C@@]1(/C=C/S(=O)(=O)NC(=O)Nc2c3c(cc4c2CCC4)CCC3)CCCN1C(=O)OC(C)(C)C
IC50, nM: 11
--
molecule: CC(C)(C)OC(=O)N1CCC1(C)/C=C/S(=O)(=O)NC(=O)Nc1c2c(cc3c1CCC3)CCC2 (centres unmarked)
IC50, nM: 11
--
molecule: CN1CCC[C@@]1(C)/C=C/S(=O)(=O)NC(=O)Nc1c2c(cc3c1CCC3)CCC2
IC50, nM: 8.6
--
molecule: O=C(Nc1c2c(cc3c1CCC3)CCC2)NS(=O)(=O)/C=C/[C@H]1CCCN1C1CCSCC1
IC50, nM: 21
